Protocol Description: In vivo pharmacokinetics in Wistar rat
Condition Notes: plasma, iv, 2 mg/kg
Property Label: half-life (h)
State the answer as a number, implicitly in h.

In: Item under review: Cc1cc(-c2ccc(C#N)cc2)cc(C)c1Oc1nc(NC2CCN(Cc3ccc(C(N)=O)cc3)CC2)nc2ccsc12 . Reported half-life?
Out: 1.71

====

Tested on: HIV-1 L100I mutant strain
Protocol Description: microbe, parasite or virus in culture
Type: cell-based
Condition Notes: Human immunodeficiency virus 1, MT4, read-out: EC50 L100I
So basically: is EC50 under 50 nM? Then rule met. Not under? Then rule not met.

In: Bench note: check whether O=C1Nc2ccc(Cl)cc2[C@@](C#CC2CC2)(C(F)(F)F)O1 [EFV, efavirenz, reference compound] shows EC50 below 50 nM
Out: rule met

In: Proceed to Cc1cc(-c2cccc(C#N)c2)cc(C)c1Oc1nc(NC2CCN(Cc3ccc(S(N)(=O)=O)cc3)CC2)nc2ccsc12
Out: rule met

In: Proceed to Cc1cc(-c2ccco2)cc(C)c1Oc1nc(NC2CCN(Cc3ccc(S(N)(=O)=O)cc3)CC2)nc2ccsc12
Out: rule not met

In: Proceed to Cc1cc(-c2ccsc2)cc(C)c1Oc1nc(NC2CCN(Cc3ccc(S(N)(=O)=O)cc3)CC2)nc2ccsc12
Out: rule not met

In: Proceed to Cc1cc(-c2cccs2)cc(C)c1Oc1nc(NC2CCN(Cc3ccc(S(N)(=O)=O)cc3)CC2)nc2ccsc12
Out: rule not met

In: Proceed to Cc1cc(-c2ccc(F)cc2)cc(C)c1Oc1nc(NC2CCN(Cc3ccc(S(N)(=O)=O)cc3)CC2)nc2ccsc12
Out: rule met

In: Proceed to Cc1cc(-c2ccc(N(C)C)cc2)cc(C)c1Oc1nc(NC2CCN(Cc3ccc(C(N)=O)cc3)CC2)nc2ccsc12
Out: rule not met

In: Proceed to Cc1cc(-c2ccc(C#N)cc2)cc(C)c1Oc1nc(NC2CCN(Cc3ccc(S(N)(=O)=O)cc3)CC2)nc2ccsc12
Out: rule met

In: Proceed to Cc1cc(-c2cccc(N(C)C)c2)cc(C)c1Oc1nc(NC2CCN(Cc3ccc(C(N)=O)cc3)CC2)nc2ccsc12
Out: rule not met

In: Proceed to Cc1cc(-c2cccc(N(C)C)c2)cc(C)c1Oc1nc(NC2CCN(Cc3ccc(S(N)(=O)=O)cc3)CC2)nc2ccsc12
Out: rule not met

In: Proceed to Cc1cc(-c2ccco2)cc(C)c1Oc1nc(NC2CCN(Cc3ccc(C(N)=O)cc3)CC2)nc2ccsc12
Out: rule not met

In: Proceed to COc1ccc(-c2cc(C)c(Oc3nc(NC4CCN(Cc5ccc(C(N)=O)cc5)CC4)nc4ccsc34)c(C)c2)cc1
Out: rule not met

In: Proceed to Cc1cc(-c2ccc(N(C)C)cc2)cc(C)c1Oc1nc(NC2CCN(Cc3ccc(S(N)(=O)=O)cc3)CC2)nc2ccsc12
Out: rule not met

FYI, the data here is from paper PMC7280082.
